target: fusion protein containing GAL4-DNA-binding domain and ERR full-length (Homo sapiens, UniProt P11474); construct: expressed in transfected cells; host or cells: 293T cells; assay: Reporter assay system using 293T cells (GAL4-ERR luciferase, inverse agonist activity); assay type: cell-based; conditions: HEK-293T, compound final concentration 3 μM, no compound = 0%, 10 μM XCT-790 = 100%, read-out: inhibition rate (%) at 3 μM
Sequence (P11474 whole entry, the tested form may be a part): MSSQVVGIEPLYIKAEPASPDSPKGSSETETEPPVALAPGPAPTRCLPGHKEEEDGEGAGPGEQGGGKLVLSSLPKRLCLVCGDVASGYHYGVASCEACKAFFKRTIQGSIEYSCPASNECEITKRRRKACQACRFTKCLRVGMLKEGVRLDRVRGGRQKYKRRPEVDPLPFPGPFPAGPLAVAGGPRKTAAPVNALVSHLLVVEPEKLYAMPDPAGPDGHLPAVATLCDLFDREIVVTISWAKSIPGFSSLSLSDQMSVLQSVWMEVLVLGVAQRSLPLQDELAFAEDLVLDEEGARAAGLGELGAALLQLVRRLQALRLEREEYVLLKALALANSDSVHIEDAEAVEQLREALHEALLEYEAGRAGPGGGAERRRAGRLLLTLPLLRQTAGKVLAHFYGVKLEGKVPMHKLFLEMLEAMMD
Structures can show the parent of a compound that is named as a salt.
Reported inhibition at 3 µM by item:
I only need the number, in %, no unit after it.

Illustrative cases are given below, each with its answer.
| molecule | inhibition at 3 µM, % |
| --- | --- |
| COCCOCCNC1=NC(=O)S/C1=C\C1CCN(Cc2ccc(C(F)(F)F)cc2C(F)(F)F)CC1 | 85 |
| O=C1N=C(NCC(O)CO)/C(=C/C2CCN(Cc3ccc(C(F)(F)F)cc3C(F)(F)F)CC2)S1 (stereo not shown) | 91 |
| CCNC1=NC(=O)S/C1=C\C1CCN(Cc2ccc(C(F)(F)F)cc2C(F)(F)F)CC1 | 84 |

-- ask What value of measured inhibition at 3 µM is listed for C#CCNC1=NC(=O)S/C1=C\C1CCN(Cc2ccc(Cl)cc2C(F)(F)F)CC1 [Example 24, fumarate] ?
-- reply 92

-- ask Repeat for the following molecule: CCCNC1=NC(=O)S/C1=C\C1CCN(Cc2ccc(C(F)(F)F)cc2C(F)(F)F)CC1
-- reply 88

-- ask Repeat for the following molecule: CCN(CC)CCOCCNC1=NC(=O)S/C1=C\C1CCN(Cc2ccc(C(F)(F)F)cc2C(F)(F)F)CC1 [Example 47, ditosylate]
-- reply 90

-- ask Repeat for the following molecule: CC(C)(O)C#CCNC1=NC(=O)S/C1=C\C1CCN(Cc2ccc(C(F)(F)F)cc2C(F)(F)F)CC1
-- reply 88
